Test system: Ros pY2274 in HCC78 cells
Experiment: pROS1 immunofluorescence assay in HCC78 cells
Assay type: cell-based
Conditions: Homo sapiens, HCC78, 4 h, read-out: HCC78-pRos1 pIC50 (converted)
Protocol: pROS1 Immunofluorescence Assay in HCC78 Cells […] The same experiment was performed using total Ros1 antibody (sc-6347) diluted 1/1000 instead of Ros1 pY2274 antibody and an anti-goat antibody conjugated to IRDye800cw as a secondary antibody. RFUs were measured at 800 nM. […]
Grouping by measured IC50 is done with the following cut points: c1: < 30 nM; c2: ≥ 30 nM and < 100 nM; c3: ≥ 100 nM

For orientation, consider the following solved cases.
molecule	label
CC(C)c1ccc(COc2ccc(-c3c(-c4ccncc4F)nn4c3C(=O)NCC4)cc2)cc1	c1
CC(C)c1ccc(COc2ccc(-c3c(-c4ccncc4)nn4c3C(=O)NCC4)cc2)cc1	c1

Which category does the recorded IC50 put `O=C1NCCn2nc(-c3ccncc3)c(-c3ccc(OCc4ccc(C(F)(F)F)cc4)cc3)c21` in?
c3

Which category does the recorded IC50 put `COc1cc(-c2c(-c3ccncc3)nn3c2C(=O)NCC3)cnc1OCc1ccc(C(C)C)cc1` in?
c1

Which category does the recorded IC50 put `COc1cc(-c2c(-c3ccncc3)nn3c2C(=O)NCC3)ccc1OCc1ccc(C(C)C)cc1` in?
c1

Which category does the recorded IC50 put `O=C1NCCn2nc(-c3ccncc3)c(-c3ccc(OCc4ccc(OC(F)(F)F)cc4)cc3)c21` in?
c3

Which category does the recorded IC50 put `CC(C)c1ccc(COc2ccc(-c3c(-c4ccncc4)nn4c3C(=O)N(CCO)CC4)cc2)cc1` in?
c1

Which category does the recorded IC50 put `O=C1NC2(CC2)Cn2nc(-c3ccncc3)c(-c3ccc(OCc4ccc(C5CC5)cc4)cc3)c21` in?
c2

Which category does the recorded IC50 put `CC(C)c1ccc(COc2ccc(-c3c(-c4ccncc4)nn4c3C(=O)NCC4)cc2C#N)cc1` in?
c3

Which category does the recorded IC50 put CC1Cn2nc(-c3ccncc3)c(-c3ccc(OCc4ccc(C5CC5)cc4)cc3)c2C(=O)N1 (stereo not drawn) in?
c2

----------
Returns: string. Value is met if measured melting point is below 200 °C, and not met if it is greater than or equal to it.

For orientation, consider the following solved cases.
chemical-string	label
CC(C)c1ccc(COc2ccc(-c3c(-c4ccncc4)nn4c3C(=O)N(C)CC4)cn2)cc1	met
CC(C)c1ccc(COc2ccc(-c3c(-c4ccncc4)nn4c3C(=O)N(CCO)CC4)c(C#N)c2)cc1	met
CC(C)c1ccc(COc2ccc(-c3c(-c4ccncc4)nn4c3C(=O)N(CCO)CC4)c(F)c2)cc1	met
CC(C)c1ccc(COc2ccc(-c3c(-c4ccncc4)nn4c3C(=O)N(CCO)CC4)cc2)cc1F	met
COc1cc(COc2ccc(-c3c(-c4ccncc4)nn4c3C(=O)NCC4)cc2)ccc1C(C)C	not met
CC(C)(O)c1ccc(COc2ccc(-c3c(-c4ccncc4)nn4c3C(=O)NCC4)cc2)cc1	not met

Now for another entry.
Quick check: does `CC(C)c1ccc(COc2ccc(-c3c(-c4ccnc(CO)c4)nn4c3C(=O)NCC4)cc2)cc1` have melting point under 200 °C?
not met

----------
target: Ros1 enzyme (Homo sapiens, UniProt P08922); construct: 0.5 μg/ml Ros1 enzyme; assay: Ros1 enzymatic assay; assay type: biochemical; conditions: Ros1 enzymatic assay; read-out: ROS1 pIC50 (converted)
Sequence (P08922 28-2347): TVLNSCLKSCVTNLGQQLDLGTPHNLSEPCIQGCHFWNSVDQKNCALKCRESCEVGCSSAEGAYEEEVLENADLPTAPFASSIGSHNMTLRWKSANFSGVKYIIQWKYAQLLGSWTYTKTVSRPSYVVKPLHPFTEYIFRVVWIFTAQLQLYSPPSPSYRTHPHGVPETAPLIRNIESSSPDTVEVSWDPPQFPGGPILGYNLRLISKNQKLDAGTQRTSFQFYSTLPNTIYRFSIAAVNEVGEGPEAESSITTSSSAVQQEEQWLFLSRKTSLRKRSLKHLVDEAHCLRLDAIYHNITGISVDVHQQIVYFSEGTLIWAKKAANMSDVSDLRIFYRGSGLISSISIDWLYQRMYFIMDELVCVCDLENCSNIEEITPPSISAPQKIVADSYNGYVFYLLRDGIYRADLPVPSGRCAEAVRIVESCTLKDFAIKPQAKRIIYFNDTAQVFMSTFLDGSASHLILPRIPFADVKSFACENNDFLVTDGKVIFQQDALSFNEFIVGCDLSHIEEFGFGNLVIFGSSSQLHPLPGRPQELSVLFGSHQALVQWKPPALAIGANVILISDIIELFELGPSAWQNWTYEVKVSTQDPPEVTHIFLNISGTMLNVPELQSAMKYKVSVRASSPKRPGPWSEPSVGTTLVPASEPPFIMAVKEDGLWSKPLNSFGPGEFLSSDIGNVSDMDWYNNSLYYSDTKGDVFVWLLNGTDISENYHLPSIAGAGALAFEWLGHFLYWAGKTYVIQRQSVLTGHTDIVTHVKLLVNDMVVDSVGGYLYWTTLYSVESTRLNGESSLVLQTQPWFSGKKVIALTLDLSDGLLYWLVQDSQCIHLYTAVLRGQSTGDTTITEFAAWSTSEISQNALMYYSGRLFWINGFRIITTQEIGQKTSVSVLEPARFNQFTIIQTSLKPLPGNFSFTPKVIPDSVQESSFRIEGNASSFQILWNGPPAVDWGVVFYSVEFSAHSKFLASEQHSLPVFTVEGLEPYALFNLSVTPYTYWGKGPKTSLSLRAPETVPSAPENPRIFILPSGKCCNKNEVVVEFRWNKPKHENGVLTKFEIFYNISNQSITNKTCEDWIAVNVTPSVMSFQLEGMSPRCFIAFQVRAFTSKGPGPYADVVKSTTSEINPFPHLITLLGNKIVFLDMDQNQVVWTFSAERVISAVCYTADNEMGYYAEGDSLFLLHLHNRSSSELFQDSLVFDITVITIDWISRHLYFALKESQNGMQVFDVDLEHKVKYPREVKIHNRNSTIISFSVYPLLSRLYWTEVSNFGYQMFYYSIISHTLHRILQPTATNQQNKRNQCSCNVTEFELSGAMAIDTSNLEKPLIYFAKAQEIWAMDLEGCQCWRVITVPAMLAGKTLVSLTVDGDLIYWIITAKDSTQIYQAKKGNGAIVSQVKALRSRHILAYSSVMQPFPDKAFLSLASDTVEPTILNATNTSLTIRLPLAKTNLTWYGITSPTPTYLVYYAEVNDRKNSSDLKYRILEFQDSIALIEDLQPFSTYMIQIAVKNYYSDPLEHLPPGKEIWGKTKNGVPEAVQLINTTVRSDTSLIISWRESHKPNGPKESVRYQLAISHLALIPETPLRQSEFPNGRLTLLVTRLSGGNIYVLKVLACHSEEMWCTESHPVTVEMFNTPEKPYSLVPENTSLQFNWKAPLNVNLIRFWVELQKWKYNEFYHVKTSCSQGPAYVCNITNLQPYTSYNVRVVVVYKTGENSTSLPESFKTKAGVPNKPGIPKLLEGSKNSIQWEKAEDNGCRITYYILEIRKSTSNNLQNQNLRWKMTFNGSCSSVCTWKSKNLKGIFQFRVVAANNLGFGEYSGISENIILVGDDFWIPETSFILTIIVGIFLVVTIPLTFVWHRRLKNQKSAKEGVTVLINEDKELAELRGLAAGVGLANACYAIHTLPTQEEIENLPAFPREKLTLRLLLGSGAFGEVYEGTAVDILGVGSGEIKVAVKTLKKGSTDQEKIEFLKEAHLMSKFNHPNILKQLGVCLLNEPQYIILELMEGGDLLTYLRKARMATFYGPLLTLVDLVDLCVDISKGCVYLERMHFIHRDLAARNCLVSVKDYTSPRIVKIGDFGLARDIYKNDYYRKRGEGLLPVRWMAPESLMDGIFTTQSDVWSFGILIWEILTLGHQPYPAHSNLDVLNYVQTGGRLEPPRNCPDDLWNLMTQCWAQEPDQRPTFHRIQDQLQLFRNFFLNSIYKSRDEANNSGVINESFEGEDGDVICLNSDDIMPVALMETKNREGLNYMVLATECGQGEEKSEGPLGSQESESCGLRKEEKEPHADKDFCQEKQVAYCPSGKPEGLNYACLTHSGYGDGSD
reported-metric: IC50 (nM)
Numbers only, in nM.

molecule	IC50 (nM)
COc1cc(-c2c(-c3ccncc3)nn3c2C(=O)N(CCO)CC3)cc(OC)c1OCc1ccc(C(C)C)cc1 [Compound 36]	5010
CN1CCn2nc(-c3ccncc3)c(-c3ccc(OCc4ccc(C5CC5)nc4)cc3)c2C1=O [Compound 138]	100
CC(C)c1ncc(COc2ccc(-c3c(-c4ccncc4)nn4c3C(=O)NCC4)cc2)cn1 [Compound 103]	1260
CC(C)c1ccc(COc2ccc(-c3c(-c4ccnc(N)n4)nn4c3C(=O)NCC4)cc2)cc1 [Compound 13]	20

Provide each entry's IC50 from the list below.
1. CC(C)c1ccc(COc2ccc(-c3c(-c4cc[n+]([O-])cc4)nn4c3C(=O)NCC4)cc2)cc1 [Compound 170]
2. CC(C)c1ccc(COc2ccc(-c3c(-c4ccncn4)nn4c3C(=O)N(CCO)CC4)cc2)cc1 [Compound 159]
3. CNC(=O)CN1CCn2nc(-c3ccncc3)c(-c3ccc(OCc4ccc(C(C)C)cc4)cc3)c2C1 [Compound 174]
4. CC(C)c1ccc(COc2ccc(-c3c(-c4ccncc4)nn4c3C(=O)NCC4)cc2F)cc1 [Compound 18]
5. O=C1c2c(-c3ccc(OCc4ccc(C5CC5)cc4)cc3)c(-c3ccncc3)nn2CCN1CCO [Compound 129]
6. CC(O)C(=O)N1CCn2nc(-c3ccncc3)c(-c3ccc(OCc4ccc(C(C)C)cc4)cc3)c2C1 (stereo not shown) [Compound 180]
7. CC(C)c1cccc(COc2ccc(-c3c(-c4ccncc4)nn4c3C(=O)NCC4)cc2)c1 [Compound 110]
8. COc1ccc(COc2ccc(-c3c(-c4ccncc4)nn4c3C(=O)NCC4)cc2)cc1 [Compound 112]

1: 6310; 2: 50.1; 3: 200; 4: 10; 5: 63.1; 6: 501; 7: 126; 8: 158

Provide each entry's IC50 from the list below.
1. CC(C)c1ccc(COc2ccc(-c3c(-c4ccncc4)nn4c3C(=O)N(CCO)CC4)cc2)c(F)c1F [Compound 100]
2. c1cc(-c2nn3c(c2-c2ccc(OCc4ccc(C5CC5)cc4)cc2)CNC2(CC2)C3)ccn1 [Compound 171]
3. CC(C)c1ccc(COc2ccc(-c3c(-c4ccncn4)nn4c3C(=O)N(CCN)CC4)cc2)cc1 [Compound 165]
4. CC(C)c1ccc(COc2ccc(-c3c(-c4ccncn4)nn4c3C(=O)NCC4)cc2)cc1 [Compound 158]
5. CC(C)c1ccc(COc2ccc(-c3c(-c4ccncc4)nn4c3C(=O)N(CCO)CC4)cc2)c(F)c1 [Compound 92]
6. CC(C)c1ccc(C(C)Oc2ccc(-c3c(-c4ccncc4)nn4c3C(=O)N(CCO)CC4)cc2)cc1 (stereo not shown) [Compound 144]
7. CC(C)c1ccc(COc2cnc(-c3c(-c4ccncc4)nn4c3C(=O)NCC4)cn2)cc1 [Compound 76]
8. CC(C)c1ccc(COc2ccc(-c3c(-c4ccncc4)nn4c3C(=O)NCC4)c(F)n2)cc1 [Compound 74]

200
398
200
50.1
50.1
1260
251
15.8

Source: patent US10280170B2
